Assay: Annexin V/PI flow cytometric assay of neutrophils’ viability
Assay type: cell-based, human
Settings: human, isolated human neutrophils, pH 7.4; 25.00 μM; representative plot, Figure 4; read-out: Viable cells [annexin V (−)/PI (−)], lower left quadrant
measurementType: viability at 40 min, 25 µM (%)

>>> datavalue("O=c1cc(/C=C/c2ccccc2)oc2cc(O)cc(O)c12")
88.4

====

System: human neutrophils
Test: Annexin V/PI flow cytometric assay of neutrophils’ viability
Format: cell-based
Conditions: annexin V/PI assay, 40 min incubation at 37 °C
Procedure: Following the Declaration of Helsinki and the approval of patient-related procedures and protocols by the Ethics Committee of Centro Hospitalar do Porto, Portugal, venous blood was collected from healthy human blood donors, after informed consent. […] The effect of the studied 2-SC on neutrophils’ viability was assessed by flow cytometry, after simultaneous staining with FITC Annexin V and propidium iodide (PI) (Figure S1), as previously reported by our research group, with modifications. […]
Each entry below lists one item and its recorded Higher 2-SC concentration that did not affect human neutrophils’ viability value.
measurementType: Higher 2-SC concentration that did not affect human neutrophils’ viability

>>> datavalue("O=c1cc(/C=C/c2ccc(O)cc2)oc2ccccc12 [B1]")
"25.00 µM"
>>> datavalue("O=c1cc(/C=C/c2c(Cl)cccc2Cl)oc2cccc(O)c12 [G4]")
"25.00 µM"
>>> datavalue("O=c1cc(/C=C/c2ccccc2)oc2cccc(O)c12 [A2]")
"6.25 µM"
>>> datavalue("O=c1cc(/C=C/c2ccc(O)c(O)c2)oc2cc(O)cc(O)c12 [B9]")
"12.50 µM"
>>> datavalue("O=c1cc(/C=C/c2ccc(O)c(O)c2)oc2cc(O)ccc12 [B8]")
"25.00 µM"
>>> datavalue("COc1ccc2c(=O)cc(/C=C/c3ccc(O)c(O)c3)oc2c1 [B10]")
"6.25 µM"
>>> datavalue("COc1ccc2c(=O)cc(/C=C/c3ccc(OC)c(OC)c3)oc2c1 [C4]")
"37.50 µM"
>>> datavalue("O=c1cc(/C=C/c2cccc(O)c2)oc2cccc(O)c12 [A7]")
"6.25 µM"
>>> datavalue("O=c1cc(/C=C/c2ccc([N+](=O)[O-])cc2)oc2cccc(O)c12 [F2]")
"12.50 µM"
>>> datavalue("COc1ccc2c(=O)cc(/C=C/c3ccc(O)c(O)c3)oc2c1OC [B13]")
"12.50 µM"

Where do the numbers come from? From paper PMC8953385.
